test system: MS2 coat protein; test: apparent KD of MS2 coat protein; designed switch direction (-1 OFF switch, 1 ON switch): 1; higher = weaker reporter binding; settings: Eterna round: R95; input ligand: none
metric-name: apparent KD of MS2 coat protein (nM)

UGCAUACAUGAGGAUCACCCAUGUCUACGAUGUCGAGGAUAUGGAUUGCCGUGAGGCGUGCCAGAAGGCGAAGUGG [Same State 1 - Mod of Vinnie Teenbexe v.2] (puzzle: Same State 1) | 30.1
AGGGAGGAGGCUGAGGAUAUCGUAAGGAGGACAUGAGGAUCACCCAUGUGUAUAGGAUUGGAGGACGAGAAGGCAGAGGAGUGGG [JR_SS2_Sub050] (puzzle: Same State 2) | 28.9
GUCAGGUAAGCUUUUUUCUCGUAGUGUAAACAUGAGGAUCACCCAUGUGCUCACCCUGGAUCUUUGGAUCGCAGAAA [Atormace] (puzzle: Sensor for hsa-mir-208a) | 17.1
UGUCCAGCCUGAGCUGGACAAAAGCAUGUACAUGAGGAUCACCCAUGUUCAUGUACAAGCUUUUUGCUCGUCUUACA [salish99_208a_r3_080] (puzzle: Sensor for hsa-mir-208a) | 529
AGUCCAGCCUGAGCUGGACAAAAGCAUGUACAUGAGGAUCACCCAUGUCAUGUACAAGCUUUUUGCUCGUCUUGAAA [Zipper 46 - 9] (puzzle: Sensor for hsa-mir-208a) | 807

---

Each record here notes measured apparent KD of MS2 coat protein.
system: MS2 coat protein; assay: apparent KD of MS2 coat protein; designed switch direction (-1 OFF switch, 1 ON switch): -1; higher = weaker reporter binding; settings: Eterna round: R95; input ligand: none
metric-name: apparent KD of MS2 coat protein (nM)

GAUUGACAUGAGGAUCACCCAUGUGAGGAUAUCGGCUGGACCGUGUUGGCUUGCCUCUCGAGAAGGCGCAUAGG [Exclusion 1 V52] (puzzle: Exclusion 1) | 43.8
GAUUAUGCGAGCUUUAGGGACAUGAGGAUCACCCAUGUUCGUCUUAUUAGUCUGGGUGCACUGACAUACCUAAAUCU [JMF 93] (puzzle: Sensor v3, turn-off variant 1) | 320
AGUACUAACACGAUAGUGUUAGUACUAUAAGCUUGUGUUACAUGAGGAUCACCCAUGUCCUCAUAAGCUCGUCUUAG [Mat - Sensor v3 - Turn-off var 2 - D66] (puzzle: Sensor v3, turn-off variant 2) | 41.6
CUGGUCCGAGGAUAUAUUAAGUGAAACAUGAGGAUCACCCAUGUUAUUUAAUGGAUGUAAAUAGAAGGCGGACUAG [JL-ex5-3.12] (puzzle: Exclusion 5) | 42.8
AAGAAACAUGAGGAUCACCCAUGUGAGGAUAUGUAAAAGAAAAGAAAAGAAAGAAGAAACAGAAGGCACAAAGG [Mat - Mod of Hog D12] (puzzle: Exclusion 1) | 45.2

---

test system: MS2 coat protein; test: apparent KD of MS2 coat protein, switch ON state; designed switch direction (-1 OFF switch, 1 ON switch): -1; higher = weaker reporter binding; settings: FMN input: 0 or 200 uM; Eterna round: R93 (includes R88 designs)
metric-name: apparent KD of MS2 coat protein

AAAAAGUGAGGAUAUACAUGAGGAUCACCCAUGUAAAAAAAAAAAAGGGUGGAAGAAAGUAGAAGGCACCAAAA [Ex 3 May 47] | 67.3 nM
ACUAGUACAGGAUAUACAUGAGGAUCACCCAUGUGAGAAUUAAGUGGCGUACCACAAAGUAGAAGGGUACUAGA [Mat - Exclusion 3 - JL mod - D14] | 34.3 nM
UGCAGGUGAGGAUAUGCGGGCGAUUAAACAUAUAAAUGCAAGCAGAAGGCACAUGAGGAUCACCCAUGUAGUCC [Ex4Try2_Neo] | 30.8 nM

Recorded values, source the supplement of paper PMC9170038.
